All values here come from patent US6534049B2.

target: gp120/CD4 interaction (Human immunodeficiency virus type 1 group M subtype B, UniProt P03375); assay: cell-based

chemicalStructure	IC50, µM
COc1cc(-c2ccc(/N=N/c3ccc4c(S(=O)(=O)O)cc(S(=O)(=O)O)c(N)c4c3O)c(OC)c2)ccc1/N=N/c1ccc2c(S(=O)(=O)O)cc(S(=O)(=O)O)c(N)c2c1O	2.28
